# maps each entry to its melting point
Structures can show the parent of a compound that is named as a salt.
Metric name: melting point (°C)

Compound: CN(C(=O)N1N=C2c3cc(F)ccc3OC[C@@H]2[C@@H]1c1ccccc1)C1CCNCC1 (racemic)
Metric name: melting point
Value reported: 196

Compound: CN(C)CCCN(C)C(=O)N1N=C2c3cc(F)ccc3OC[C@@H]2[C@@H]1c1cccc(O)c1 (racemic) (as salt: salt)
Metric name: melting point
Value reported: 145

Compound: CN(CCN)C(=O)N1N=C2c3cc(F)ccc3OC[C@@H]2[C@@H]1c1ccccc1 (stereo in doubt)
Metric name: melting point
Value reported: 113.2

Compound: O=C(N(C1CCNCC1)C1CC1)N1N=C2c3cc(F)ccc3OC[C@@H]2[C@@H]1c1ccccc1 (racemic)
Metric name: melting point
Value reported: 142

Compound: CN(C)C(=O)N1N=C2c3cc(F)ccc3OC[C@@H]2[C@@H]1c1ccccc1 (racemic)
Metric name: melting point
Value reported: 117

---

Counter-ions that a name gives are not always drawn.
Item-by-item account of melting point
Metric name: melting point

Molecule: CN(C)CCN(C)C(=O)N1N=C2c3cc(F)ccc3OC[C@@H]2[C@@H]1c1ccccc1 (racemic) (as salt: salt)
Value reported: 248 to 250 °C
//
Molecule: CCN(C)C(=O)N1N=C2c3cc(F)ccc3OC[C@@H]2[C@@H]1c1ccccc1 (racemic)
Value reported: 133 to 137 °C
//
Molecule: CC(C)N(C)C(=O)N1N=C2c3cc(F)ccc3OC[C@@H]2[C@@H]1c1ccccc1 (racemic)
Value reported: 102 to 105 °C
